Recorded inhibition values for a group of compounds are listed next.
target: Neutrophil elastase (Homo sapiens) (UniProt P08246); test: Inhibition of human neutrophil elastase assessed as N-methoxysuccinyl-Ala-Ala-Pro-Val p-nitroanilide conversion to p-nitroaniline at 100 ug/ml after 1 hr by spectrophotometric analysis relative to control
Sequence (P08246 whole entry): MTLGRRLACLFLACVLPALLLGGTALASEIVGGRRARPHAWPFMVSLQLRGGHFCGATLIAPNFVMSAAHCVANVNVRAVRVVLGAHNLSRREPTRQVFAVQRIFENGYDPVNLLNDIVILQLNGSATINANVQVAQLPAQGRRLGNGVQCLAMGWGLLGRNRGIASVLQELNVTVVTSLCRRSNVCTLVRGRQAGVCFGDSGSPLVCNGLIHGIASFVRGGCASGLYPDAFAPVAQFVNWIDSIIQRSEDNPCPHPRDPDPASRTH
Measurement name: inhibition (%)

1) CC(=O)c1c(O)c(C)c(O)c2c1OC1=CC(=O)/C(=C(/C)NCCSSCCN/C(C)=C3\C(=O)C=C4Oc5c(C(C)=O)c(O)c(C)c(O)c5[C@@]4(C)C3=O)C(=O)[C@@]12C : 30.1
2) CC(=O)c1c(O)c(C)c(O)c2c1OC1=CC(=O)/C(=C(/C)N)C(=O)[C@@]12C : 15.3
3) CC(=O)c1c(O)c(C)c(O)c2c1OC1=CC(=O)/C(=C(/C)NCCCC(=O)O)C(=O)[C@@]12C : 30.3
4) CC(=O)C1=C(O)C=C2Oc3c(C(C)=O)c(O)c(C)c(O)c3[C@@]2(C)C1=O [(+)-USNIC ACID] : 36.4
5) CC(=O)c1c(O)c(C)c(O)c2c1OC1=CC(=O)/C(=C(/C)NCCS)C(=O)[C@@]12C : 20.4
6) O=C(O[C@@H]1Cc2c(O)cc(O)cc2O[C@@H]1c1cc(O)c(O)c(O)c1)c1cc(O)c(O)c(O)c1 : 88.2

----------
organism: Bos taurus; assay: Inhibition of bovine hyaluronidase assessed as sodium hyaluronate conversion to N-acetylglucosamine at 100 ug/ml by spectrophotometric analysis relative to control
Measurement name: inhibition (%)

1) O=C(OC[C@H]1O[C@@H](OC(=O)c2cc(O)c(O)c(OC(=O)c3cc(O)c(O)c(O)c3)c2)[C@H](OC(=O)c2cc(O)c(O)c(OC(=O)c3cc(O)c(O)c(O)c3)c2)[C@@H](OC(=O)c2cc(O)c(O)c(OC(=O)c3cc(O)c(O)c(O)c3)c2)[C@@H]1OC(=O)c1cc(O)c(O)c(OC(=O)c2cc(O)c(O)c(O)c2)c1)c1cc(O)c(O)c(OC(=O)c2cc(O)c(O)c(O)c2)c1 : 76.3
2) CC(=O)c1c(O)c(C)c(O)c2c1OC1=CC(=O)/C(=C(/C)NCCCC(=O)O)C(=O)[C@@]12C : 39.4
3) CC(=O)c1c(O)c(C)c(O)c2c1OC1=CC(=O)/C(=C(/C)N)C(=O)[C@@]12C : 41.9
4) CC(=O)c1c(O)c(C)c(O)c2c1OC1=CC(=O)/C(=C(/C)NCCS)C(=O)[C@@]12C : 15.6
5) CC(=O)C1=C(O)C=C2Oc3c(C(C)=O)c(O)c(C)c(O)c3[C@@]2(C)C1=O [(+)-USNIC ACID] : 33.1
6) CC(=O)c1c(O)c(C)c(O)c2c1OC1=CC(=O)/C(=C(/C)NCCSSCCN/C(C)=C3\C(=O)C=C4Oc5c(C(C)=O)c(O)c(C)c(O)c5[C@@]4(C)C3=O)C(=O)[C@@]12C : 18.3

----------
test system: Hathewaya histolytica; experiment: Inhibition of Clostridium histolyticum collagenase using N-[3-(2-Furyl)acryloyl]-Leu-Gly-Pro-Ala as substrate at 100 ug/ml after 15 mins by spectrophotometric analysis relative to control
Record condition met whenever inhibition is at 30% or higher; record condition not met when lower.

1. O=C(O[C@@H]1Cc2c(O)cc(O)cc2O[C@@H]1c1cc(O)c(O)c(O)c1)c1cc(O)c(O)c(O)c1 : condition met
2. CC(=O)c1c(O)c(C)c(O)c2c1OC1=CC(=O)/C(=C(/C)NCCS)C(=O)[C@@]12C : condition not met
3. CC(=O)C1=C(O)C=C2Oc3c(C(C)=O)c(O)c(C)c(O)c3[C@@]2(C)C1=O [(+)-USNIC ACID] : condition met
4. CC(=O)c1c(O)c(C)c(O)c2c1OC1=CC(=O)/C(=C(/C)NCCCC(=O)O)C(=O)[C@@]12C : condition met
5. CC(=O)c1c(O)c(C)c(O)c2c1OC1=CC(=O)/C(=C(/C)N)C(=O)[C@@]12C : condition met
